Hi there, I'd appreciate the recorded ΔVmax @ 30 µM for every entry that follows.
target: cardiac SR (SERCA2a + PLB) (Sus scrofa, UniProt P11607); construct: Cardiac SR membrane vesicles were isolated from ventricular myocardium obtained from fresh pig hearts; from tissue; host or cells: pig ventricular myocardium, SR membrane vesicles; test: Ca-ATPase activity of cardiac SR (CSR), NADH-linked enzyme-coupled assay; assay type: biochemical, pig; conditions: CSR, 30 µM compound, relative to DMSO control
Sequence (P11607 1-997 isoform P11607-2): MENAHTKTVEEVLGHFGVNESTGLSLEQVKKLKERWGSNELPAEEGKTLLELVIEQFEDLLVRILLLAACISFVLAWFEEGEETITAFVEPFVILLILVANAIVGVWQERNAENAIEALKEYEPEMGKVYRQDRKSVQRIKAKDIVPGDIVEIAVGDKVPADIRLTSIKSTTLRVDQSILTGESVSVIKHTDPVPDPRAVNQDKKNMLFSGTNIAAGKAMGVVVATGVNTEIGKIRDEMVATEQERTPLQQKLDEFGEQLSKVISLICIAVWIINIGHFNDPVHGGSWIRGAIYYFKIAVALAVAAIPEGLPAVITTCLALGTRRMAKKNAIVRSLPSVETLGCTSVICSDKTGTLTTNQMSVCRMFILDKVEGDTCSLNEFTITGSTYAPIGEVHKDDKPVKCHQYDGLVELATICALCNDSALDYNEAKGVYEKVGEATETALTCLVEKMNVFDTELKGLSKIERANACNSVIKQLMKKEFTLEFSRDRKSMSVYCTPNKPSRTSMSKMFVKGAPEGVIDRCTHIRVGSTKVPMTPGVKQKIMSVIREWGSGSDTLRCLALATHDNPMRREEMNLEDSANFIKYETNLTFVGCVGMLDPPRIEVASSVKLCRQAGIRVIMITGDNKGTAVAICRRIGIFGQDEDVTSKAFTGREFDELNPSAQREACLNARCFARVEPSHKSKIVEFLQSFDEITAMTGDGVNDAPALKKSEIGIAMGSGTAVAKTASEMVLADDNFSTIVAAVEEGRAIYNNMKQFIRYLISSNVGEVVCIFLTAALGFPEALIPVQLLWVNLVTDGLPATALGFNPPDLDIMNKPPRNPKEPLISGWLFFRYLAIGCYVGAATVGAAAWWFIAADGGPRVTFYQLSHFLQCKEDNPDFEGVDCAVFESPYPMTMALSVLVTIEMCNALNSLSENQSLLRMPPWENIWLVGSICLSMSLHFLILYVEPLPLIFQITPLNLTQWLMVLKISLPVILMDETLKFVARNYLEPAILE
Sequence (P61013 whole entry partner): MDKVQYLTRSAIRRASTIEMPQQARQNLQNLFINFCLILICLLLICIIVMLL
Give the value in % but do not write % after it.

Would you kindly share the measured ΔVmax @ 30 µM for `Oc1ccc(/C=C/c2ccc(/C=C/c3ccc(O)cc3)c(Br)c2)cc1` ?
-83.7

Next: `CCc1ccc(/C=C2/SC(=S)NC2=O)cc1`
-7.5

Next: `CCCCN(CC)c1nc(C)nc2c1c(C)cn2-c1c(C)cc(C)cc1C`
34.4

Next: `CN1CCC[C@@H]1Cc1c[nH]c2ccc(Nc3ncccc3[N+](=O)[O-])cc12`
-3.8

* * *

Hi there, I'd appreciate the recorded pEC50 for every entry that follows.
target: cardiac SR (SERCA2a + PLB) (Sus scrofa, UniProt P11607); construct: Cardiac SR membrane vesicles were isolated from ventricular myocardium obtained from fresh pig hearts; from tissue; host or cells: pig ventricular myocardium, SR membrane vesicles; experiment: Ca-ATPase activity of cardiac SR (CSR), NADH-linked enzyme-coupled assay; type: biochemical, pig; details: CSR; read-out: EC50 Vmax
The read-out pEC50 is expressed as -log10 of concentration in moles per litre.

Would you kindly share the measured pEC50 for CCCCCCCCCCCCCCCC(=O)OC(CC(=O)O)C[N+](C)(C)C.[Cl-] (racemic) [Palmitoyl-DL-carnitine chloride] ?
4.79

Next: `CCCCN(CC)c1nc(C)nc2c1c(C)cn2-c1c(C)cc(C)cc1C`
6.00

Next: `CC1=C(/C=C/C(C)=C/C=C/C(C)=C/C(=O)O)C(C)(C)CCC1`
4.95

Next: `CN=c1nc(-c2ccccc2)n(-c2ccccc2)s1`
5.85

Next: Clc1ccc(C(c2ccc(Cl)cc2)n2cc[n+](CC(OCc3ccc(Cl)cc3Cl)c3ccc(Cl)cc3Cl)c2)cc1 (stereo not shown)
4.80

Next: `Oc1ccc(/C=C/c2ccc(/C=C/c3ccc(O)cc3)c(Br)c2)cc1`
5.17

Next: CCOc1nc2cccc(C(=O)OC(C)OC(=O)OC3CCCCC3)c2n1Cc1ccc(-c2ccccc2-c2nnn[nH]2)cc1 (stereo not shown)
4.93

* * *

molecular target: SERCA2a-PLB complex (GFP-SERCA2a / RFP-PLB in HEK293 cells) (Homo sapiens, UniProt P16615+P26678, C36A/C41F/C46A); assay: SERCA2a-PLB TR-FRET (fluorescence lifetime) biosensor assay in living cells; type: cell-based; set-up: expressed in transfected cells; host or cells: HEK293; settings: compound incubation for 20 min, final concentration 100 µM; uncertainty (1 S.D.) 11 ps
Sequence (P16615 1-997 isoform P16615-2, stated change not applied): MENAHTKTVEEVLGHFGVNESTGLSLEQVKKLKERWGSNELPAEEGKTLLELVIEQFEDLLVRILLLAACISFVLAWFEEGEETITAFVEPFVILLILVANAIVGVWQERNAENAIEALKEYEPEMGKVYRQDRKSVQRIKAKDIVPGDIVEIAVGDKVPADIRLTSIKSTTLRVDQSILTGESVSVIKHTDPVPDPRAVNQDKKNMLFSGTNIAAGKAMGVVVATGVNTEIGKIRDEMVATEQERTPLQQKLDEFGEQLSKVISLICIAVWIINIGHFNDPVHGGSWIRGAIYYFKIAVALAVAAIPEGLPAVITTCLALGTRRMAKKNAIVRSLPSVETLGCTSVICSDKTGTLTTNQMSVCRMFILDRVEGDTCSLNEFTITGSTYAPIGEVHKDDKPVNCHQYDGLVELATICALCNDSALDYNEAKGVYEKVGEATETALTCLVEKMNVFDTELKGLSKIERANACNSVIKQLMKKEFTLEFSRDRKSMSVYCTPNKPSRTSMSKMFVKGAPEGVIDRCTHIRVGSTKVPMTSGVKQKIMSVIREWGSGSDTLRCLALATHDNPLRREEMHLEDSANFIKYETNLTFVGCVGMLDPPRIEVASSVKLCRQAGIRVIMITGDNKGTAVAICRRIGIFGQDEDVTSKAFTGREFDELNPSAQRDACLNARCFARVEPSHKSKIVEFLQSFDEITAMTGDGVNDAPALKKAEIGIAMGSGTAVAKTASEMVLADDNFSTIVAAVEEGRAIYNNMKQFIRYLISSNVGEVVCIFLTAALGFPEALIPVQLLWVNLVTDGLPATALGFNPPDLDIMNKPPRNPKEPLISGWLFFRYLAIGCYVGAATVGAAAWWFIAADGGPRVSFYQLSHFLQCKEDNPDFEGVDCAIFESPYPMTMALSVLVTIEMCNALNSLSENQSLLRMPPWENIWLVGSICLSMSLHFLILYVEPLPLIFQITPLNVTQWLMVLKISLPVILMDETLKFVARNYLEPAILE
Sequence (P26678 whole entry C36A/C41F/C46A): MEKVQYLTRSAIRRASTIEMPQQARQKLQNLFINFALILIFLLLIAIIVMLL
Hi there, I'd appreciate the recorded ΔFLT for every entry that follows.
Give the value in ps but do not write ps after it.

Would you kindly share the measured ΔFLT for `O=C(c1cc(O)c(O)c([N+](=O)[O-])c1)c1ccccc1F` ?
-152

Next: CCCCCCCCCCCCCCCC(=O)OC(CC(=O)O)C[N+](C)(C)C.[Cl-] (racemic) [Palmitoyl-DL-carnitine chloride]
189

Next: `CNC(=O)c1cc2c(cn1)[nH]c1ccccc12`
10

Next: CCOc1nc2cccc(C(=O)OC(C)OC(=O)OC3CCCCC3)c2n1Cc1ccc(-c2ccccc2-c2nnn[nH]2)cc1 (centres unmarked)
181

Next: `CC1=C(/C=C/C(C)=C/C=C/C(C)=C/C(=O)O)C(C)(C)CCC1`
-31

Next: `CC(C)(C)c1ccc(/C=C/C(=O)Nc2ccc3c(c2)OCCO3)cc1`
-1

Next: `Cc1[nH]c(=O)c(C#N)cc1-c1ccc2nccn2c1`
254

Next: `O=C(Nc1cccnc1)N1CCC(Cc2cccc(Oc3ccc(C(F)(F)F)cn3)c2)CC1`
38

Next: `Oc1ccc(/C=C/c2ccc(/C=C/c3ccc(O)cc3)c(Br)c2)cc1`
-102

Next: `CCc1ccc(/C=C2/SC(=S)NC2=O)cc1`
-11

Next: `COC(=O)c1c(C)[nH]c(C)c1C(=O)c1ccccc1Cc1ccccc1`
47

Next: `NC(=O)N1C(=O)/C(=C(\O)c2cccs2)c2cc(Cl)ccc21`
-68

Next: `CN1CCC[C@@H]1Cc1c[nH]c2ccc(Nc3ncccc3[N+](=O)[O-])cc12`
-390

Next: Clc1ccc(C(c2ccc(Cl)cc2)n2cc[n+](CC(OCc3ccc(Cl)cc3Cl)c3ccc(Cl)cc3Cl)c2)cc1 (centres unmarked)
-192

Next: `Brc1c(Br)c(Br)c2n[nH]nc2c1Br`
63

Next: `CCCCN(CC)c1nc(C)nc2c1c(C)cn2-c1c(C)cc(C)cc1C`
185

Next: `CN=c1nc(-c2ccccc2)n(-c2ccccc2)s1`
35

The reported numbers originate from paper PMC6105598.
